Tested on: ATP;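 also: ATP exposure 15 min at 22 °C before imaging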
Experiment: switch fluorescence ratio, 500 uM ATP over buffer (Cy3 cluster intensity, sum of 5 cycles each) (fold (ratio)); higher = stronger signal-on switching upon ATP binding; sequences stand for … in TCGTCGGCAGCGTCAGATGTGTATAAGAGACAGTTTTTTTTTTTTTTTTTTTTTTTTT…TC
Settings: aptamer strand: ATP DNA aptamer (quencher-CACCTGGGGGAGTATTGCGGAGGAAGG + anchor), 100 nM annealed; ATP concentration: 500 uM
Each entry below lists one item and its recorded switch fluorescence ratio value.
QUANTITY MEASURED: switch fluorescence ratio

INSERT INTO results (sequence_chain, observed_value) VALUES
  ('GAAATGATTT', 1.04),
  ('AAAAACAAAA', 1.04),
  ('GGCATTCGAT', 0.981),
  ('GGGGGGAGTT', 0.999),
  ('AAAGCTGGGT', 1),
  ('TTGGCTTTGT', 0.985),
  ('TAGGTTTTCG', 0.99),
  ('TATCGGCGTG', 0.988),
  ('ATTTGAGATT', 1),
  ('GCCCTGGGTC', 1.02),
  ('CCAGGTTAAT', 1.04),
  ('AAAACGTATA', 1.07),
  ('GATGGAGGGC', 1.05),
  ('GGAAAATTTA', 0.963),
  ('GCTATAGTAT', 0.998),
  ('GTTAGGGGGA', 1),
  ('AGTTAGACGA', 1.01),
  ('ACAAGGGAAG', 0.988),
  ('CCCCCGGTTT', 1.12),
  ('TTGGCCGTGT', 1.02);

----------
Tested on: ATP;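 also: ATP exposure 15 min at 22 °C before imaging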
Test: switch fluorescence ratio, 500 uM ATP over buffer (Cy3 cluster intensity, sum of 5 cycles each) (fold (ratio)); higher = stronger signal-on switching upon ATP binding; sequences stand for … in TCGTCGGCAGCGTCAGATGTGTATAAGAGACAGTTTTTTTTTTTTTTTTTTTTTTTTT…TC
Details: aptamer strand: ATP DNA aptamer (quencher-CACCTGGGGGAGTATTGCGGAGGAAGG + anchor), 100 nM annealed; ATP concentration: 500 uM
QUANTITY MEASURED: switch fluorescence ratio

INSERT INTO measurements (sequence_chain, quantity_measured, observed_value) VALUES
  ('TGTTGGCCAG', 'switch fluorescence ratio', 0.98),
  ('CGACATATCC', 'switch fluorescence ratio', 1.12),
  ('GTGATACCCG', 'switch fluorescence ratio', 1.02),
  ('TTGAGCATAT', 'switch fluorescence ratio', 2.12),
  ('TGTGGAAAGA', 'switch fluorescence ratio', 0.992),
  ('TTGAACCCGA', 'switch fluorescence ratio', 1.01),
  ('TTTGGGCACG', 'switch fluorescence ratio', 1.05),
  ('GGATGATGCC', 'switch fluorescence ratio', 0.986),
  ('TGGGCGCGGT', 'switch fluorescence ratio', 0.975),
  ('AACGGGGAAC', 'switch fluorescence ratio', 0.986),
  ('CCTACGTTT', 'switch fluorescence ratio', 1.06),
  ('CATACGGGTA', 'switch fluorescence ratio', 1.04),
  ('TATGGGCTGG', 'switch fluorescence ratio', 0.979),
  ('TACTTGCTTC', 'switch fluorescence ratio', 1.02),
  ('CGTTAGAGAG', 'switch fluorescence ratio', 0.99),
  ('TAGGTTTTTG', 'switch fluorescence ratio', 1.01),
  ('CCGGGGCTGG', 'switch fluorescence ratio', 1.04),
  ('GCTACTTTGC', 'switch fluorescence ratio', 1.04),
  ('CGTCGGGGCA', 'switch fluorescence ratio', 0.964),
  ('GTGTCAAGTA', 'switch fluorescence ratio', 0.961),
  ('GCTGGTGGGT', 'switch fluorescence ratio', 0.988);

----------
Each item that follows carries a reported switch fluorescence ratio.
Tested on: ATP;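 also: ATP exposure 15 min at 22 °C before imaging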
Test: switch fluorescence ratio, 500 uM ATP over buffer (Cy3 cluster intensity, sum of 5 cycles each) (fold (ratio)); higher = stronger signal-on switching upon ATP binding; sequences stand for … in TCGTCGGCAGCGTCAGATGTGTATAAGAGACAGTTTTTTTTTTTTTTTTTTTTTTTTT…TC
Conditions: aptamer strand: ATP DNA aptamer (quencher-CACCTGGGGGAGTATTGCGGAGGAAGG + anchor), 100 nM annealed; ATP concentration: 500 uM
QUANTITY MEASURED: switch fluorescence ratio

INSERT INTO assay_data (sequence_chain, observed_value) VALUES
  ('AGGAATAAGC', 1.01),
  ('ATCGCAATTG', 1.89),
  ('TCATGTGACT', 1.02),
  ('TAAAGCGAGC', 1.03),
  ('GCCGGGCTTG', 1.02),
  ('CGTTTTGGTG', 0.991),
  ('GTTTATGTGA', 1.03),
  ('GGTTCAACGG', 0.982),
  ('AACAGGGACC', 1.04),
  ('AATCTTCTAT', 1.01),
  ('TTACTGGGTT', 1),
  ('ACTACGTGGG', 1.07),
  ('ATGTTAATCT', 1.02),
  ('CATGTTAGTC', 1.01),
  ('TGAATTTTAG', 0.991),
  ('TACTGGGGAC', 1.03),
  ('GGCTCAGGGG', 1.16),
  ('GGGTGGCGCC', 0.988),
  ('GATATTATCA', 1.02),
  ('AGGCTTAAGA', 0.976),
  ('ATTTGATCGA', 1.02),
  ('TCTTACGGGG', 1),
  ('CTATGATTCG', 1.01),
  ('GCCCAGACGG', 1.31),
  ('GACGGAACGG', 1.04),
  ('TACGGTGCAG', 0.981),
  ('CCAGGCATGT', 1.05),
  ('GGAACGGGGT', 1.01),
  ('CTGTTTGGGG', 1),
  ('ATTTATAGGG', 0.982),
  ('CAGGTAAGGA', 0.969),
  ('CTAATGAGTT', 0.999),
  ('CAACATGGGG', 0.993),
  ('ATCTCCGGGG', 1.04),
  ('ACGTGACAGG', 1.22),
  ('AGCGTCTGTG', 0.962),
  ('GCTAATTGCA', 1.03),
  ('AGTCGACTTT', 0.997),
  ('GAAATAACTC', 1.36),
  ('TCGGCGTCTT', 0.977),
  ('TATTTTACGC', 1.01),
  ('TTACGCCGAC', 1.14),
  ('TCAGGGACGG', 0.982),
  ('CAGATGACAG', 0.997),
  ('GAGGGGCGGT', 1.02),
  ('AATGCTTGGG', 1),
  ('CCTTGTGGGA', 0.983),
  ('ACTGAGGCTA', 1.07),
  ('GCGAAGGCGT', 0.971),
  ('TCCAGGGTTA', 1.03),
  ('GCTCTATCAC', 1.04),
  ('CGTGGTATGG', 0.998),
  ('TTTATAAATT', 0.972),
  ('CGCGGCTATT', 1.07),
  ('GGGGGGTTAA', 1.02),
  ('GTGTCATGGA', 1),
  ('GGATTAATCA', 1.01),
  ('GCTAAGCCTG', 1.03),
  ('CGAGGACGGG', 1),
  ('GGTTTTGGCG', 1),
  ('TTGATTGGGG', 0.989),
  ('GCTTGGCTTG', 1.02),
  ('TGGTGGCACG', 0.965),
  ('TGGGGTGAGG', 1),
  ('GTTTTTACGA', 1.03),
  ('TGCGGCTG', 1.05),
  ('CATTGCTCTG', 1.02),
  ('GTTTTTATGG', 0.997),
  ('TTGGGCTCTG', 0.988),
  ('AATAAAGCGT', 0.983),
  ('CGTACATGT', 1.02),
  ('GGAGTATTAG', 0.999),
  ('TTGAGTGGAG', 1.02),
  ('GAAAAAGGAC', 1.27),
  ('CGGTAAGGGG', 0.987),
  ('TTGTGAGGGT', 0.981),
  ('AAGGGAAATT', 0.983),
  ('ACCTGGACCT', 1.33),
  ('TGGGGACAGC', 0.949),
  ('AAGCCCAGGG', 1.4),
  ('GATATGGAAG', 1.13),
  ('TTTGAGACAG', 0.994),
  ('AGGTTAAAA', 1.03),
  ('GTGGTATTTT', 0.999),
  ('CGCGTGTCTG', 1.02),
  ('TATGAATAGC', 1.02);
